- System Under Test: AMP-activated protein kinase, AMPK (Homo sapiens) (UniProt P54646+O43741+P54619+Q9UGJ0+Q9Y478+Q13131+Q9UGI9)
- Test Name: AMP-dependent Kinase enzyme assay. An in vitro enzyme assay that detects ADP turnover that is directly proportional to AMPK activity. This uses naive AMPK that is activated during the assay with MK-8722
- Type: functional
- Set-up: scale not given: direction of the effect not stated beside the values
- Condition Info: 30 µM
Would you kindly list Percent Effect for each of these compounds?
Numbers only, in %.

Past entries and their recorded results:
[
  {
    "Compound": "CCc1nc(NS(=O)(=O)c2ccc(F)cc2C)no1",
    "Percent Effect [%]": -5.09
  },
  {
    "Compound": "Cc1ccc(C)n1-c1ccc(C(=O)NCCNc2ncccn2)cc1",
    "Percent Effect [%]": -10.7
  },
  {
    "Compound": "O=C(c1cnccn1)N1CCOCC2(CCN(C3CCOCC3)C2)C1 (stereo unspecified)",
    "Percent Effect [%]": -6.88
  },
  {
    "Compound": "Cc1nn(C)c2c(=O)n(CC(=O)Nc3cc(Cl)cc(Cl)c3)nnc12",
    "Percent Effect [%]": 0.0353
  },
  {
    "Compound": "CCNC(=O)N1CCC2(C1)c1ccccc1S(=O)(=O)N2CCC(C)C (stereo unspecified)",
    "Percent Effect [%]": 5.91
  },
  {
    "Compound": "CCn1ccnc1CN1CCN(Cc2ccc(C#N)cc2)CC1",
    "Percent Effect [%]": -10.9
  },
  {
    "Compound": "Cc1ncc(C(=O)N2C[C@H]3CC[C@@H]2CN(S(=O)(=O)N(C)C)C3)c(C)n1",
    "Percent Effect [%]": -1.8
  },
  {
    "Compound": "CCCNC(=O)N1CCN(Cc2cc(C)no2)CC1",
    "Percent Effect [%]": -8.42
  },
  {
    "Compound": "CC(COc1ccccc1)NCc1nc(-c2cccnc2)no1 (stereo unspecified)",
    "Percent Effect [%]": -4.69
  },
  {
    "Compound": "CC(C)C(C(=O)N1CCN(Cc2ccncc2)CC1)n1cncn1 (stereo unspecified)",
    "Percent Effect [%]": 4.2
  }
]

Okay, next one:
Request: May I ask what Percent Effect has been recorded for CC(NCc1ccc(F)cc1)c1ccc(OCC(=O)NC2CC2)cc1 (stereo unspecified) ?
Response: 9.48

----------
- System Under Test: Sialic acid-binding Ig-like lectin 9 (Homo sapiens)
- Test Name: Hs-Siglec9 ALPHAscreen SOP 20170721
- Design: scale not given: direction of the effect not stated beside the values
- Condition Info: 10 µM
Measurement Name: Percent Effect (%)
One number for each entry, in %.

Example entries and their recorded answers appear below.
[
  {
    "Compound": "COc1ccccc1CC(=O)NS(=O)(=O)c1ccc(C(N)=O)cc1",
    "Percent Effect, %": 0.784
  },
  {
    "Compound": "Cc1ccc(CN2CCN(CC3CC3)[C@@H]3CS(=O)(=O)C[C@@H]32)cc1C",
    "Percent Effect, %": 3.97
  },
  {
    "Compound": "Cc1cccc(C(=O)NCc2ccnc(N(C)C)c2)n1",
    "Percent Effect, %": 6.58
  },
  {
    "Compound": "CN(Cc1nnc(C2CC2)n1C)C(=O)c1ccnc(OC2CCC2)c1",
    "Percent Effect, %": 2.83
  },
  {
    "Compound": "O=C(CN1CCC(C(=O)c2cc(F)ccc2F)CC1)NC1CCCC1",
    "Percent Effect, %": -3.6
  }
]

Request: Sample CC(C)N1CCCC(CCCc2ccccn2)(C(=O)O)C1 (stereo unspecified) — what was its Percent Effect?
Response: 0.499

----------
Please respond with reported Percent Effect for every item in the list.
- System Under Test: Protein translocase subunit SecA (Escherichia coli (strain K12))
- Test Name: Assay to Identify E. coli SecA ATPase Inhibitors
- Type: functional
- Design: scale not given: direction of the effect not stated beside the values
- Condition Info: 30 µM
Measured potencies and affinities stand elsewhere.
Numeric answer plus unit only.

Take a look at these entries with their results.
[
  {
    "Molecule": "Cc1noc(C)c1CNC(=O)c1ccc(NC2CC2)nc1",
    "System Under Test": "Protein translocase subunit SecA (Escherichia coli (strain K12))",
    "Percent Effect": "-5.61%"
  },
  {
    "Molecule": "COc1ccc(F)c(CN2CCC(c3cc(O)nc(C)n3)C2)c1 (stereo unspecified)",
    "System Under Test": "Protein translocase subunit SecA (Escherichia coli (strain K12))",
    "Percent Effect": "-8.36%"
  },
  {
    "Molecule": "O=C(Nc1ccc(F)cc1)N1C[C@H]2C[C@H](C(=O)N3CCOCC3)[C@@H](C1)O2",
    "System Under Test": "Protein translocase subunit SecA (Escherichia coli (strain K12))",
    "Percent Effect": "-1.74%"
  },
  {
    "Molecule": "Cc1ncsc1CN1CC[C@H]2OCC[C@@]2(C(=O)NC(C)C)C1",
    "System Under Test": "Protein translocase subunit SecA (Escherichia coli (strain K12))",
    "Percent Effect": "-3.99%"
  },
  {
    "Molecule": "Cc1ccc(=O)n(CC2(O)CCN(Cc3cnc(C)nc3)CC2)n1",
    "System Under Test": "Protein translocase subunit SecA (Escherichia coli (strain K12))",
    "Percent Effect": "-6.32%"
  },
  {
    "Molecule": "COc1ccc(OC)c(NC(=O)NCC(O)c2ccc(F)c(F)c2)c1 (stereo unspecified)",
    "System Under Test": "Protein translocase subunit SecA (Escherichia coli (strain K12))",
    "Percent Effect": "-0.0799%"
  }
]

List the reported Percent Effect of each molecule below.
1. O=C1CC(c2ccccc2F)c2c(n3ccsc3nc2=O)N1 (stereo unspecified)
2. CC(C)c1cc(NC(=O)c2ccc(NC3CC3)nc2)[nH]n1
3. COc1cccc(COCC(=O)N2CCCC(c3nncn3C)C2)c1 (stereo unspecified)
4. Cc1noc(C)c1CN1CC2(CCN(C(=O)c3c[nH]cn3)C2)CC1=O (stereo unspecified)
5. Cc1nnc(C2Cc3ccccc3CN2Cc2ncc(C(C)(C)C)o2)o1 (stereo unspecified)

Response:
["-2.59%", "-5.31%", "-4.98%", "-0.0681%", "-1.87%"]

----------
- System Under Test: Ubiquitin-activating enzyme e1, putative (Leishmania donovani (strain BPK282A1)) (UniProt E9BSI1)
- Sequence (E9BSI1 as listed by the source): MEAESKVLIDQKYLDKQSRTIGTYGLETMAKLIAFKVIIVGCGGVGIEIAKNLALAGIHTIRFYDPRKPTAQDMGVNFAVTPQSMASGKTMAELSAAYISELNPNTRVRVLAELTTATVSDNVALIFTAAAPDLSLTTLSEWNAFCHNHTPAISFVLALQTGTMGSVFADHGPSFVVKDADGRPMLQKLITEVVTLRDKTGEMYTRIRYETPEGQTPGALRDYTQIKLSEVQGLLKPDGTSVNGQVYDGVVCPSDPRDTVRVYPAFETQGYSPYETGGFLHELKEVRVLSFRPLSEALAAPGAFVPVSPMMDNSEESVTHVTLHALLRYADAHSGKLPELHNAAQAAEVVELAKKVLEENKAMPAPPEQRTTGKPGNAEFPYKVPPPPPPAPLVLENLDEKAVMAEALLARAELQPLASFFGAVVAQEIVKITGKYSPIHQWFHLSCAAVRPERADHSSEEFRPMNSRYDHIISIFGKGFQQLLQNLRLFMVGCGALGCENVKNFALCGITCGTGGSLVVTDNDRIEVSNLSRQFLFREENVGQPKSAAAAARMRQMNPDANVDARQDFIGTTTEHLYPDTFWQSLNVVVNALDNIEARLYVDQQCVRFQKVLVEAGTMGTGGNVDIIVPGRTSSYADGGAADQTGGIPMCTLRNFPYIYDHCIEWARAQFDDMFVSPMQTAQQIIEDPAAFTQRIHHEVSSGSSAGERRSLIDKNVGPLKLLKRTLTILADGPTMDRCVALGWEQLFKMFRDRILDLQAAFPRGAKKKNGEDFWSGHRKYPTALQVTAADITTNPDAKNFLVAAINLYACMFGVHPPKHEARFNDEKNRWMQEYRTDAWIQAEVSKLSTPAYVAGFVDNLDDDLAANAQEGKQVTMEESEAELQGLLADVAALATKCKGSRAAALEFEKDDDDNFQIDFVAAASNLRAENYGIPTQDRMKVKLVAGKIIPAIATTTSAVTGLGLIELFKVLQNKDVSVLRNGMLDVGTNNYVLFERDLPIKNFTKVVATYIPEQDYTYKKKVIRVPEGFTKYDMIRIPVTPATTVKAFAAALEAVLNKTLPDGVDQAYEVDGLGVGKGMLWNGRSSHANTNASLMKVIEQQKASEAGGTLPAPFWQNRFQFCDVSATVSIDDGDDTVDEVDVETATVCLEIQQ
- Test Name: Leishmania donovani Ubiquitin Activating Enzyme (LdE1)
- Type: functional
- Parameters: scale not given: direction of the effect not stated beside the values
- Condition Info: 30 µM
Results with a measured potency or affinity are listed apart.
Measurement Name: Percent Effect (%)
Numbers only, in %.

Hey, quick one: what's Percent Effect for each of these?
1. CCN(CC)CCNC(=O)c1cc(C(C)C)nc(N2CCCC2)n1
2. O=C1N(Cc2ccccc2F)CCCC12CCN(C1CCSCC1)C2 (centres undefined)
3. O=C(Cn1ccc2sccc2c1=O)NCc1ccc2c(c1)OCO2

Response:
1: 20; 2: -8; 3: 5.2

Report Percent Effect for every entry below.
1. Fc1cccc(Oc2ccc(CNCC3CNc4ccnn4C3)cn2)c1 (centres undefined)
2. CC(=O)N1CCN(S(=O)(=O)c2ccc(C)c(F)c2)CC1
3. CC(C)N1CCC(N2CCN(C3CCC3)CC2CCO)CC1 (centres undefined)
4. CC(=O)N1CCCCC1c1cc(CO)[nH]n1 (centres undefined)
5. CN(C(=O)c1cccc2[nH]ncc12)C1CCN(c2ccccn2)CC1
6. COCCNC(=O)[C@@H]1CC[C@@H]2[C@@H](CCN2Cc2cnn(C)c2)O1

Response:
1: 13; 2: 10.5; 3: 1.39; 4: 1.35; 5: 7.79; 6: 13.3

Report Percent Effect for each item below.
1. COc1ccccc1CC1CCCN(CC(N)=O)C1 (centres undefined)
2. COc1cccc(N2CCN(CC(O)c3cc(C)sc3C)CC2)c1 (centres undefined)
3. Cc1nn(CC(C)C)c(N(C)C)c1CNCc1cc2ccccc2[nH]1
4. CC(=O)c1c(F)cccc1N1CCC(CS(N)(=O)=O)CC1

Response:
1: 7.79; 2: 20.3; 3: 10.8; 4: -2.74

----------
- System Under Test: Ubiquitin-activating enzyme e1, putative (Leishmania donovani (strain BPK282A1))
- Test Name: Leishmania donovani Ubiquitin Activating Enzyme (LdE1)
- Type: functional
- Set-up: scale not given: direction of the effect not stated beside the values
- Condition Info: 30 µM
Potency and affinity values are given separately.
Measurement Name: Percent Effect (%)
Answers are plain numbers, in %.

[
  {
    "Molecule": "CN(C)CCOCC1CN(C(=O)[C@H]2CCCO2)Cc2ccnn2C1 (stereo partly specified)",
    "System Under Test": "Ubiquitin-activating enzyme e1, putative (Leishmania donovani (strain BPK282A1))",
    "Percent Effect, %": 0
  },
  {
    "Molecule": "Cc1n[nH]c(C2CN(C(=O)CCc3ccco3)CCO2)n1 (stereo unspecified)",
    "System Under Test": "Ubiquitin-activating enzyme e1, putative (Leishmania donovani (strain BPK282A1))",
    "Percent Effect, %": 7.89
  },
  {
    "Molecule": "Cc1ccc(CC(=O)N(C)CC2(O)CCN(c3ccccn3)C2)s1 (stereo unspecified)",
    "System Under Test": "Ubiquitin-activating enzyme e1, putative (Leishmania donovani (strain BPK282A1))",
    "Percent Effect, %": -1.35
  },
  {
    "Molecule": "Cc1cc(=O)[nH]c(NCCNC(=O)C(c2ccc(F)cc2)N(C)C)n1 (stereo unspecified)",
    "System Under Test": "Ubiquitin-activating enzyme e1, putative (Leishmania donovani (strain BPK282A1))",
    "Percent Effect, %": 11
  },
  {
    "Molecule": "CC(Cn1cccn1)NC(=O)N(C)Cc1ccc(Cl)s1 (stereo unspecified)",
    "System Under Test": "Ubiquitin-activating enzyme e1, putative (Leishmania donovani (strain BPK282A1))",
    "Percent Effect, %": 2.53
  },
  {
    "Molecule": "FC(F)(F)c1cc(N2CCc3ncnc(NC4CC4)c3CC2)ncn1",
    "System Under Test": "Ubiquitin-activating enzyme e1, putative (Leishmania donovani (strain BPK282A1))",
    "Percent Effect, %": 13.3
  },
  {
    "Molecule": "CCN1CCN(C2CCN(Cc3ncc(C(C)(C)C)o3)CC2)C1=O",
    "System Under Test": "Ubiquitin-activating enzyme e1, putative (Leishmania donovani (strain BPK282A1))",
    "Percent Effect, %": -7.79
  },
  {
    "Molecule": "CC(C)(C)c1nc(CN2CCC(c3nc4cc(Cl)ccc4o3)CC2)no1",
    "System Under Test": "Ubiquitin-activating enzyme e1, putative (Leishmania donovani (strain BPK282A1))",
    "Percent Effect, %": 13.5
  },
  {
    "Molecule": "CCCNC(=O)Nc1cccc2c1CCN(S(C)(=O)=O)C2",
    "System Under Test": "Ubiquitin-activating enzyme e1, putative (Leishmania donovani (strain BPK282A1))",
    "Percent Effect, %": 18.4
  },
  {
    "Molecule": "CC(NC(=O)c1cccs1)C(=O)NCc1cccnc1N1CCCCC1 (stereo unspecified)",
    "System Under Test": "Ubiquitin-activating enzyme e1, putative (Leishmania donovani (strain BPK282A1))",
    "Percent Effect, %": 15.6
  }
]

Request: Please give the measured Percent Effect for this molecule: COCC1c2c(cnn2C)CCN1Cc1ccc(F)cc1 (stereo unspecified)
Response: -2.7
